The measurements presented in this section are drawn from ChEMBL document CHEMBL4513216.

Assay: Toxicity liver stage against HepG2, at 10uM
Format: cell-based
Parameters: test concentration 10 uM, cell line HepG2-A16-CD81EGFP
Settings: human, HepG2-A16-CD81EGFP cells; read-out: INHIBITION
quantity-kind: cytotoxicity at 10 µM (%)
Respond with the bare value in %.

(Q) Please report the recorded cytotoxicity at 10 µM for CCOc1cccc(C(=O)N2CCCn3nc(CCC(=O)O)cc3C2)c1 .
(A) -3.43

(Q) Please report the recorded cytotoxicity at 10 µM for Oc1cccc(CNCc2ccc(-n3cncn3)nc2)c1 .
(A) 4.01

(Q) Please report the recorded cytotoxicity at 10 µM for Cc1nn(CCNc2ncnc3c2NC(=O)CN3)c(C)c1Cl .
(A) 10.5

(Q) Please report the recorded cytotoxicity at 10 µM for CCS(=O)(=O)CC(C)N(C)C(=O)NCCc1cccc(F)c1F (stereo unspecified) .
(A) 8.28

(Q) Please report the recorded cytotoxicity at 10 µM for CC(C)=CCN1Cc2nnc(C3CCOCC3)n2C(Cc2c[nH]cn2)C1 (stereo unspecified) .
(A) -9.36

(Q) Please report the recorded cytotoxicity at 10 µM for Cc1nc(C(=O)N(C)CC2CCCO2)nn1-c1ccccc1C(C)C (stereo unspecified) .
(A) -3.62

(Q) Please report the recorded cytotoxicity at 10 µM for CCS(=O)(=O)N1CC[C@@H]2[C@@H](CCC(=O)N2CCc2ccccc2)C1 .
(A) 0.86

(Q) Please report the recorded cytotoxicity at 10 µM for O=C(NCCCOc1cccnc1)c1cn(CCc2ccccc2)nn1 .
(A) -0.977

(Q) Please report the recorded cytotoxicity at 10 µM for CC(C)n1ncc2c1NC(=O)CC21C(=O)Nc2c(Cl)cccc21 (stereo unspecified) .
(A) -1.58

(Q) Please report the recorded cytotoxicity at 10 µM for COc1ccc(C2CCCCCN2S(=O)(=O)N(C)C)cc1 (stereo unspecified) .
(A) -9.87

(Q) Please report the recorded cytotoxicity at 10 µM for Cc1sc(-c2ccco2)nc1C(=O)NCC1CCOC1 (stereo unspecified) .
(A) -6.71

* * *

Test: Toxicity liver stage against HepG2, at 10uM
Format: cell-based
Set-up: test concentration 10 uM, cell line HepG2-A16-CD81EGFP
Conditions: human, HepG2-A16-CD81EGFP cells; read-out: INHIBITION
quantity-kind: cytotoxicity at 10 µM (%)
Respond with the bare value in %.

(Q) Please report the recorded cytotoxicity at 10 µM for CN(CCc1cccs1)C(=O)Nc1cccc(S(C)(=O)=O)c1 .
(A) -8.77

(Q) Please report the recorded cytotoxicity at 10 µM for Cc1cc(CN2CCN(c3ccc4nncn4n3)CC2)no1 .
(A) -4.6

(Q) Please report the recorded cytotoxicity at 10 µM for CNc1nc(C2CCCN2)nc2c1CCN(S(=O)(=O)C1CCCCC1)C2 (stereo unspecified) .
(A) 9.17

(Q) Please report the recorded cytotoxicity at 10 µM for COc1cccc(CNCCc2cccc(C(N)=O)c2)c1 .
(A) 9.83

(Q) Please report the recorded cytotoxicity at 10 µM for Cc1ccc(Cl)c(CN2CCC3(CC2)C(C(=O)O)CC(=O)N3C)c1F (stereo unspecified) .
(A) 2.64

(Q) Please report the recorded cytotoxicity at 10 µM for CC(C)c1cc(=O)[nH]c(-c2ccccc2CN2CCCCCC2)n1 .
(A) -2.1

* * *

Assay: Toxicity liver stage against HepG2, at 10uM
Format: cell-based
Design: test concentration 10 uM, cell line HepG2-A16-CD81EGFP
Conditions: human, HepG2-A16-CD81EGFP cells; read-out: INHIBITION
For each entry below, report its cytotoxicity at 10 µM value.
Respond with the bare value in %.

(Q) Please report the recorded cytotoxicity at 10 µM for Cn1cc(C2CC(=O)NC23CCN(CC2CC2)CC3)cn1 (centres undefined) .
(A) -7.28

(Q) Please report the recorded cytotoxicity at 10 µM for CC(C)=CCN1CCN(Cc2nccn2C)C(C)C1 (centres undefined) .
(A) -14.4

(Q) Please report the recorded cytotoxicity at 10 µM for N#Cc1cc(F)ccc1NCC1CCN(S(=O)(=O)C(F)F)CC1 .
(A) 18.4

(Q) Please report the recorded cytotoxicity at 10 µM for CN(Cc1cnn(C)c1)S(=O)(=O)N1CCCCCC1 .
(A) -1.43

(Q) Please report the recorded cytotoxicity at 10 µM for Cc1cccc2nc(CNC(=O)N3CCC(OCC4CC4)CC3)cn12 .
(A) -2.02

(Q) Please report the recorded cytotoxicity at 10 µM for Cc1nnc(N2CC[C@H](OCC3CC3)[C@@H](Cc3ccccc3)C2)s1 .
(A) 5.25

(Q) Please report the recorded cytotoxicity at 10 µM for COCCC(=O)N1CCCC1c1cccc(C)c1C (centres undefined) .
(A) 5.79

(Q) Please report the recorded cytotoxicity at 10 µM for CNS(=O)(=O)CC(=O)N1CC2(CCCC2)c2c(F)cccc21 .
(A) -1.21

(Q) Please report the recorded cytotoxicity at 10 µM for N#Cc1nccnc1NC1CCN(c2ccccc2OC(F)F)C1 (centres undefined) .
(A) 12.8

(Q) Please report the recorded cytotoxicity at 10 µM for CCN1CC(=O)NCC12CCN(C(=O)c1ccno1)C2 (centres undefined) .
(A) -2.75

(Q) Please report the recorded cytotoxicity at 10 µM for O=S(=O)(NCc1ccc(S(=O)(=O)N2CCCC2)s1)c1cc(Cl)cc(Cl)c1 .
(A) -11.1

(Q) Please report the recorded cytotoxicity at 10 µM for Cc1nnc(SCC(=O)N2CCc3[nH]nc(C4CCC4)c3C2)o1 .
(A) -7.09

(Q) Please report the recorded cytotoxicity at 10 µM for Cc1c(NC(=O)CN2CCN(C3CCCC3)C(=O)C2)cnn1C .
(A) 5.25

(Q) Please report the recorded cytotoxicity at 10 µM for O=S(=O)(NCCCn1cncn1)c1ccc2c(c1)CCC2 .
(A) 3.03

(Q) Please report the recorded cytotoxicity at 10 µM for CCOc1ccc(-n2nnc(C(=O)O)c2-c2ccccn2)cc1 .
(A) -9.31

(Q) Please report the recorded cytotoxicity at 10 µM for CN1C[C@@H](C(=O)NC2CCCC2)[C@@]2(COc3ccc(F)cc3C2=O)C1 .
(A) 2.1

(Q) Please report the recorded cytotoxicity at 10 µM for CSCC(C)(O)CNS(=O)(=O)c1ccc(F)cc1 (centres undefined) .
(A) -8.06

(Q) Please report the recorded cytotoxicity at 10 µM for Cc1cnn(CCCOc2ccc3c(c2)OCO3)c1 .
(A) 8.4

(Q) Please report the recorded cytotoxicity at 10 µM for O=S(=O)(NCCc1ccccc1F)N1CCOCC1 .
(A) -1.7

(Q) Please report the recorded cytotoxicity at 10 µM for CCC(C#N)NC(=O)CCNC(=O)C(C)(C)C (centres undefined) .
(A) -1.55

(Q) Please report the recorded cytotoxicity at 10 µM for CCn1c(C)cc(C(=O)N2CCC(NC(=O)c3cc(C)no3)CC2)c1C .
(A) -1.1

(Q) Please report the recorded cytotoxicity at 10 µM for CC(C)(O)CCc1cccc(C(=O)N[C@H](C(N)=O)c2ccccc2)c1 .
(A) -4.21

(Q) Please report the recorded cytotoxicity at 10 µM for CC(C)N(C)CCCNC(=O)c1cnc(-c2ccccc2)nc1 .
(A) -6.13

(Q) Please report the recorded cytotoxicity at 10 µM for CN1CCCC(c2cccc(-c3cccc(C(F)(F)F)c3)n2)C1 (centres undefined) .
(A) -6.47
